# assay-target: T1, recombinant LILRB2 ECD (human, UniProt Q8N423 22-460)
# T1 construct: also called biotinylated LILRB2 ECD
# T1 sequence (Q8N423 22-460 limits assumed): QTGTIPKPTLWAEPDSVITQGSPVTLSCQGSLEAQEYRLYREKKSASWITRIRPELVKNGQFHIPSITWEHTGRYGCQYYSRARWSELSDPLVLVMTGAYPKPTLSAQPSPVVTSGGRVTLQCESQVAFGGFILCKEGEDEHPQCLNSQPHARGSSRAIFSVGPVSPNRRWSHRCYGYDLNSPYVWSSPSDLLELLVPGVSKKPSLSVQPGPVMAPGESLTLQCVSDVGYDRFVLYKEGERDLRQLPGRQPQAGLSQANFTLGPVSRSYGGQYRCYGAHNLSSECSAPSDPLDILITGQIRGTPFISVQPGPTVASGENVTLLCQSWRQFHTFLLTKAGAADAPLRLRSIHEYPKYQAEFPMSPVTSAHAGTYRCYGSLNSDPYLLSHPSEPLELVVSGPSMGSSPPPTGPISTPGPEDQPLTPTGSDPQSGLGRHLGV
# assay-remarks: ELISA, LILRB2 ECD binding to HLA-G-Fc
quantity-name: pIC50
Keep it numeric: pIC50 is minus log10 of the concentration in mol/L.

# pIC50 lookup, item A-003 (antibody, V domains shown, tested as IgG; also called parental antibody A-003) VH: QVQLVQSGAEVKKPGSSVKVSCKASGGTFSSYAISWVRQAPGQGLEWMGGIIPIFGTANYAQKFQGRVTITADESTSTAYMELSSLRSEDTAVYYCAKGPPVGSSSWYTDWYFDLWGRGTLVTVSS VL: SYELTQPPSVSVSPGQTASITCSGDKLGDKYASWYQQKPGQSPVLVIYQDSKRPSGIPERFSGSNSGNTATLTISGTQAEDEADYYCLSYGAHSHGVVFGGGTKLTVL
7.18

What value of pIC50 has been recorded for this entry: A-015 (antibody, V domains shown, tested as IgG) VH: QVQLVQSGAEVKKPGSSVKVSCKASGGSFQSYAINWVRQAPGQGLEWMGGIIPGFSTANYAQKFQGRVTITADESTSTAYMELSSLRSEDTAVYYCAKDLGTYSSGWPYYYGMDVWGQGTTVTVSS VL: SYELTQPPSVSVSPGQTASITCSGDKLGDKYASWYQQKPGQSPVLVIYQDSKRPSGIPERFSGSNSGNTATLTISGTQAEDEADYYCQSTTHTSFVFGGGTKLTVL
8.49

Find the recorded pIC50 belonging to A-048 (antibody, V domains shown, tested as IgG) VH: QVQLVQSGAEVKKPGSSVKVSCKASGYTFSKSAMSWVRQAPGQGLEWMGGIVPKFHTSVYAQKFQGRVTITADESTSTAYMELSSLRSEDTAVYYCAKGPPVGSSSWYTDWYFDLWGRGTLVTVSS VL: SYELTQPPSVSVSPGQTASITCSGDKLGDKYASWYQQKPGQSPVLVIYQDSKRPSGIPERFSGSNSGNTATLTISGTQAEDEADYYCALYGGGHTVVFGGGTKLTVL and report it.
8.39
